Documented GI50 across a set of compounds
# Test system: A498
# Experiment Description: NCI tumour cell line growth inhibition, 48 h
The source made the active and inactive calls. Rule as the data show it: active = GI50 up to about 1.1 µM and inactive = higher. Where a SMILES comes first, the peptide text is derived from it. [ ]: non-standard residue; d: D form. Phe(F5) = N[CH](Cc1c(F)c(F)c(F)c(F)c1F)C(=O)O
Measured Property: GI50

Compound: CCn1c(=N)sc2nc3ccccc3n2c1=O
Reported Measurement: > 100 µM (inactive)
//
Compound: CC1=C[C@@H](C)C[C@]2(C)CC[C@H](O2)[C@]23CC[C@](C(=O)O)(C[C@H](O2)[C@@H]2O[C@@](C)(CC2=O)[C@@H](O)[C@H]2CC[C@@]4(CCC[C@@H](O4)[C@H](C)C(=O)O[C@H]4C[C@H]([C@]5(O)OCC[C@H](C)[C@@H]5O)O[C@H]4C=C1)O2)O3
Reported Measurement: > 5.75 µM (inactive)
//
Compound: CCCCCCC(C)OC(=O)/C=C(\CC(=O)OC(C)CCCCCC)C(=O)OC(C)CCCCCC (configuration not stated)
Reported Measurement: > 100 µM (inactive)
//
Compound: O=C1Nc2ccccc2/C1=C1/Nc2ccccc2/C1=N/OCCO
Reported Measurement: 0.213 µM (active)
//
Compound: COC(=O)C(CC(C)C)NC(=O)C(Cc1c[nH]cn1)NC(=O)CNC(=O)C(NC(=O)C(C)NC(=O)C(Cc1c[nH]c2ccccc12)NC(=O)C(CCC(=O)O)NC(=O)C(N)Cc1c(F)c(F)c(F)c(F)c1F)C(C)C (configuration not stated) (H-[Phe(F5)]EWAVGHL-OMe; configuration not given here)
Reported Measurement: > 12.5 µM (inactive)
//
Compound: O=C(O)CNC(=O)c1ccc([As](=O)(O)O)cc1
Reported Measurement: > 100 µM (inactive)
//
Compound: Cc1ccc(S(=O)(=O)N/N=C2\CC3CC4CCC2C4C3)cc1 (configuration not stated)
Reported Measurement: > 100 µM (inactive)
